study.target: Pan-species-specific antigen Plasmodium Lactate DeHydrogenase (Pan-PLDH) protein
assay.explanation: indirect ELISA, recombinant MA protein coated 1 ug/ml, antibody 8 ng/ml
quantity: OD value at 450 nm (refer to 630 nm) (OD)
Answers are plain numbers, in OD.

I have this binder here, Mutation 2 (antibody, mouse IgG2b, kappa, V domains shown) VH: QVQLQQPGAELVRPGASVKLSCKASGSSFTNYFMNWVKQRPGQGLEWIGMIHPSESETRINQKFKDKATLTVDKSSSTAYMQLSSLTAEDSAVYYCAKSGDFYTSYFDYWGQGTTLTVSS VL: DIQLTQSPASLSASVGETVTITCRGSGNLHNYLAWYQQKQGKSPQLLVYNARTIADGVPSRFSGSGSGTQYSLKINSLQPEDFGSYYCQSFWSSYTFGGGTKLEIKR , and I need its recorded OD value at 450 nm (refer to 630 nm).
1
